Ref: ChEMBL document CHEMBL3621144

Molecular target: UniProtKB O15530
Assay: Activation of human PDK1 catalytic activity using T308tide as substrate after 1 hr by phosphor imager analysis in presence of [gamma-32P]-ATP relative to control
measured-quantity: EC50 (µM)

[
  {
    "smiles-record": "Cc1ccc(OCCSc2nc3ccccc3n2CC(=O)O)c(C)c1",
    "experimental-result": 40
  },
  {
    "smiles-record": "O=P(O)(O)[C@H](NC[C@@H]1CCCc2ccccc21)c1ccc(F)cc1",
    "experimental-result": 50
  }
]

----------
Target chain: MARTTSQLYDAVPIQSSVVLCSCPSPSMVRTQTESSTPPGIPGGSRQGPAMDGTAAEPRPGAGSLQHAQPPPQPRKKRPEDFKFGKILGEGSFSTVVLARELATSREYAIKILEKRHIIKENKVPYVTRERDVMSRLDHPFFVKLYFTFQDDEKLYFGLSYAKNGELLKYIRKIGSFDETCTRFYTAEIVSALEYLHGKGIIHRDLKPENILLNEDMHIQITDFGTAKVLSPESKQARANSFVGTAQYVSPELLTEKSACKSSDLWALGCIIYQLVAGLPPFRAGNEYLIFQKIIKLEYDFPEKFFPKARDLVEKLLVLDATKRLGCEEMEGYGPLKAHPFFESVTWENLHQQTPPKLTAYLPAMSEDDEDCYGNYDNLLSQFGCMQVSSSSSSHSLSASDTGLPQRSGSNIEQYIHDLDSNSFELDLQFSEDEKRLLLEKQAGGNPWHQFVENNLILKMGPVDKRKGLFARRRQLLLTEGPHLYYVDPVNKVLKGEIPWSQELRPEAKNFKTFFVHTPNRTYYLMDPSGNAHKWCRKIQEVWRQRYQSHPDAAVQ
measured-quantity: Kd (µM)

[
  {
    "smiles-record": "O=C(O)Cn1c(SCc2cccc3ccccc23)nc2ccccc21",
    "measured-quantity": "Kd",
    "experimental-result": 120
  },
  {
    "smiles-record": "Cc1ccccc1OCCSc1nc2ccccc2n1CCC(=O)O",
    "measured-quantity": "Kd",
    "experimental-result": 74
  }
]

[I] Cc1cccc(OCCn2c(SCC(=O)O)nc3ccccc32)c1
[II] Cc1ccccc1OCCSc1nc2ccccc2n1CC(=O)O
// pick min by Kd: I , II I would appreciate it if you answered with the label of your choice.
II
